Target Of Assay: c-erbB-2 (baculovirus expressed, recombinant intracellular domain) (Homo sapiens)
Construct: baculovirus expressed, recombinant constructs of the intracellular domains of c-erbB-2 and c-erbB-4; made in house
Sequence (P04626 676-1255 limits assumed): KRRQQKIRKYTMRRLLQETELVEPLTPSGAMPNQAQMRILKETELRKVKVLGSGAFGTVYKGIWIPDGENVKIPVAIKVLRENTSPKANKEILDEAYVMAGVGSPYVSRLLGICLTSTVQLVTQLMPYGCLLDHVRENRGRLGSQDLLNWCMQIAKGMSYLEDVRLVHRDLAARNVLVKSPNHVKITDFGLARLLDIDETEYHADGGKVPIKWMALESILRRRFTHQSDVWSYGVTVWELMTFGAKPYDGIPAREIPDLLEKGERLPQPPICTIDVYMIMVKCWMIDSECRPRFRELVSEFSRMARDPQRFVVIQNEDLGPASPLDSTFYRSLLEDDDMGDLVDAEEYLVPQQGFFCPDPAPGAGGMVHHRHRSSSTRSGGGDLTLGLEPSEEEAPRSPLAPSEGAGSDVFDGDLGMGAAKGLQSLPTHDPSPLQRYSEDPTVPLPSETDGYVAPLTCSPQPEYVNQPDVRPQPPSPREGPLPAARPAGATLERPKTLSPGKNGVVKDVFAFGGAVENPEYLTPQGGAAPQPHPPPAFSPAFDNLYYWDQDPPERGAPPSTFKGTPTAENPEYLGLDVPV
Experimental Protocol: Substrate phosphorylation assay, c-erbB-2
Type: biochemical
Structures can show the parent of a compound that is named as a salt.
Quantity: IC50 (nM)
Supply the numeric figure in nM, leaving out any unit text.

Ask: Which IC50 value is on record for CS(=O)(=O)NCCNCc1ccc(-c2ccc3ncnc(Nc4ccc(OCc5ccccc5)cc4)c3c2)o1 [Example 49, dihydrochloride] ?
Reply: 33

---

Target Of Assay: EGFr isolated from solubilised A431 cell membranes (Homo sapiens, UniProt P00533)
Construct: EGFr isolated from solubilised A431 cell membranes; endogenous in cells; host or cells: A431 cell membranes (solubilised)
Sequence (P00533 25-1210): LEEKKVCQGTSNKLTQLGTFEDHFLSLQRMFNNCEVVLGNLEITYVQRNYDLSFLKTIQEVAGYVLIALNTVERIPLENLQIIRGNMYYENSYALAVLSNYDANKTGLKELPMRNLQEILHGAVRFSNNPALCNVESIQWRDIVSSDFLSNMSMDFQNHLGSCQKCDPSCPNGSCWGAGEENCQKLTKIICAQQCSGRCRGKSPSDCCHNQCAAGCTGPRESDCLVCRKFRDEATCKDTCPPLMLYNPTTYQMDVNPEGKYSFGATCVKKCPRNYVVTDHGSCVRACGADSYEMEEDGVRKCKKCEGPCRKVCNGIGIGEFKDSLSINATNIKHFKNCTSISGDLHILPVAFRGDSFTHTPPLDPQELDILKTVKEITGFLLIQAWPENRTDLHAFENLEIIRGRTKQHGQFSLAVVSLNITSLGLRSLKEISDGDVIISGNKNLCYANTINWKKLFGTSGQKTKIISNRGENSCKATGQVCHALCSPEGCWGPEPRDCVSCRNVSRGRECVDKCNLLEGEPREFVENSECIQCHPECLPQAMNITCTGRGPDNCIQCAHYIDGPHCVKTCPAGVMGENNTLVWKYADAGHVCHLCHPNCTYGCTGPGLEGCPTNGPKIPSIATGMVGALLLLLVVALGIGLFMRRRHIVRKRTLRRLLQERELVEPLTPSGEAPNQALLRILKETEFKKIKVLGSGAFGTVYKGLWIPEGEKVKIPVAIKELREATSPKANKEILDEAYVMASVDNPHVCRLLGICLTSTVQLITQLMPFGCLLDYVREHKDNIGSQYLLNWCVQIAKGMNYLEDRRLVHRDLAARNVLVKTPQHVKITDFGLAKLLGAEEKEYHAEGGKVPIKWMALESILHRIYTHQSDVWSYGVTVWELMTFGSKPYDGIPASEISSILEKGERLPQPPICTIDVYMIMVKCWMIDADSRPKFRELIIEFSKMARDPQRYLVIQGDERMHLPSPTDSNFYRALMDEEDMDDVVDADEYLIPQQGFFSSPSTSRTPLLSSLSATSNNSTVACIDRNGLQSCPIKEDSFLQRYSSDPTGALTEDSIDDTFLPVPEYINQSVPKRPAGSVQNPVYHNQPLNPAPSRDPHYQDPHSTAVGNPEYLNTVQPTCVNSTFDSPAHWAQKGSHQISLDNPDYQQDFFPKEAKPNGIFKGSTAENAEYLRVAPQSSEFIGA
Experimental Protocol: Substrate phosphorylation assay, EGFr
Assay type: biochemical
Condition Summary: 30 minutes, room temperature, ATP and peptide at Km concentrations
Counter-ions that a name gives are not always drawn.
Entries and their measured pIC50 follow.
Recall that pIC50 is obtained by taking minus log10 of the concentration measured in molar.

Below, 10 compounds whose answers are already recorded.
1) Cc1nnc(-c2ccc3ncnc(Nc4ccc(OCc5ccccc5F)cc4)c3c2)o1 [Example 28, hydrochloride] | 7.30
2) Cc1nnc(-c2ccc3ncnc(Nc4ccc(Oc5ccccc5)cc4)c3c2)o1 [Example 20, hydrochloride] | 6.85
3) Cc1nnc(-c2ccc3ncnc(Nc4ccc5c(cnn5Cc5cccc(F)c5)c4)c3c2)o1 [Example 22, hydrochloride] | 8.10
4) c1ccc(Cn2ncc3cc(Nc4ncnc5ccc(-c6noc(Cc7cccnc7)n6)cc45)ccc32)cc1 [Example 62] | 7.89
5) CS(=O)(=O)Cc1nc(-c2ccc3ncnc(Nc4ccc5c(cnn5Cc5ccccc5)c4)c3c2)no1 [Example 60] | 5.72
6) Cc1nnc(-c2ccc3ncnc(Nc4ccc5c(cnn5Cc5ccccc5F)c4)c3c2)o1 [Example 21, hydrochloride] | 7.55
7) Cn1cncc1-c1ccc2ncnc(Nc3ccc(OCc4ccccc4)cc3)c2c1 [Example 6] | 6.17
8) Cn1cncc1-c1ccc2ncnc(Nc3ccc4c(cnn4Cc4ccccc4)c3)c2c1 [Example 38] | 6.85
9) CS(=O)(=O)CCNCc1nc(-c2ccc3ncnc(Nc4ccc5c(cnn5Cc5ccccc5)c4)c3c2)no1 [Example 59] | 7.96
10) Cc1nnc(-c2ccc3ncnc(Nc4ccc(OCc5cccc(F)c5)cc4)c3c2)o1 [Example 29, hydrochloride] | 7.64

Ask: Which pIC50 value is on record for Cc1nc(-c2ccc3ncnc(Nc4ccc5c(cnn5Cc5ccccc5)c4)c3c2)no1 [Example 61] ?
Reply: 6.09

Ask: Ok, now Cc1nnc(-c2ccc3ncnc(Nc4ccc(OCc5cccc(F)c5)c(Cl)c4)c3c2)o1 [Example 26, hydrochloride]
Reply: 7.74

Ask: Ok, now NC(=O)[C@@H]1CCCN1Cc1ccc(-c2ccc3ncnc(Nc4ccc(OCc5ccccc5)cc4)c3c2)o1 [Example 11]
Reply: 6.80

Ask: Ok, now CCN(CCN(C)C)Cc1ccc(-c2ccc3ncnc(Nc4ccc(OCc5ccccc5)cc4)c3c2)o1 [Example 13]
Reply: 6.52

Ask: Ok, now Cc1nnc(-c2ccc3ncnc(Nc4ccc5c(cnn5Cc5ccccc5)c4)c3c2)o1 [Example 41, hydrochloride]
Reply: 8.70

Ask: Ok, now CS(=O)(=O)CCNC(=O)c1ccc(-c2ccc3ncnc(Nc4ccc(OCc5ccccc5)cc4)c3c2)o1 [Example 53, hydrochloride]
Reply: 7.89

Ask: Ok, now Cc1nnc(-c2ccc3ncnc(Nc4ccc5c(cnn5Cc5cccc(F)c5F)c4)c3c2)o1 [Example 24, hydrochloride]
Reply: 7.82

Ask: Ok, now Cc1nnc(-c2ccc3ncnc(Nc4ccc5c(cnn5Cc5ccccn5)c4)c3c2)o1 [Example 23, hydrochloride]
Reply: 7.49

Ask: Ok, now Cc1nnc(-c2ccc3ncnc(Nc4ccc(OCc5ccccc5)cc4)c3c2)o1 [Example 27, hydrochloride]
Reply: 7.33
